Data origin: the Immune Epitope Database (IEDB)

target: HLA-B*27:05; test: IEDB peptide-MHC binding, purified MHC/direct/fluorescence; filed as Kd, often an IC50 or EC50 that approximates it; bounds were set here for any values at or beyond the usual limits of such assays; settings: source organism: Influenza A virus (A/Wisconsin/4755/1994(H1N1))
pKd: −log10 of the molar value.
readoutKind: pKd

DPKKTGGPI ... ≤ 4.70

====

target: HLA-B*57:01; test: IEDB peptide-MHC binding, purified MHC/direct/fluorescence; filed as Kd, often an IC50 or EC50 that approximates it; bounds were set here for any values at or beyond the usual limits of such assays; conditions: source organism: Camelpox virus M-96
pKd: −log10 of the molar value.
readoutKind: pKd

ALYSYASAK ... ≤ 4.70
